Hi there, I'd appreciate the recorded log10(koff) for every entry that follows.
Target: T1, recombinant human full-length TDP-43 (TAR DNA-binding protein 43), soluble (human, UniProt Q13148 1-414)
T1 construct: Used on Luminex beads, coated on ELISA plates, and immobilized or injected in SPR; also called FL TDP-43; TDP-43 protein
T1 sequence (Q13148 whole entry): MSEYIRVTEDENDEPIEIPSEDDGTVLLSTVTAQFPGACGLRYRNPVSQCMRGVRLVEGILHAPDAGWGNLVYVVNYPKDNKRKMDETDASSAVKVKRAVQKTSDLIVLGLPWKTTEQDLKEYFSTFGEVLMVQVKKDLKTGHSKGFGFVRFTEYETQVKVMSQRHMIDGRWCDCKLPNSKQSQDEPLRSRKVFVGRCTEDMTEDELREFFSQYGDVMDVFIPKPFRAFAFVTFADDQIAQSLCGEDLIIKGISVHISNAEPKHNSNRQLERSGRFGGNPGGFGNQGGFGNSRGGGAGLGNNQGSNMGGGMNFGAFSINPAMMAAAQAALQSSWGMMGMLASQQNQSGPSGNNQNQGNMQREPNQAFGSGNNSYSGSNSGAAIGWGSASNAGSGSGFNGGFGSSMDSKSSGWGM
Experiment: SPR, immobilized soluble TDP-43
Remember, log10 of koff, in s⁻¹.

Requested field: log10(koff). Item: 642D12B4 Fab (Fab, V domains shown, Fab fragment; also called Fab fragment of ACI-7069-642D12-Ab1) VH: EVQLQQSGAELVKPGASVRLSCTASGFNIKDPYMHWVRQRPKQGLEWIGRIDPADGNTKYDPKFQGKATLTADTSSNVAYLHLSSLTSEDTAVYYCARFYGSSHWYFDVWGAGTTVTVSS VL: DIKMTQSPSSMYASLGERVTITCKASQDIKRYLSWYQQKPWKSPKILIYYATSLADGVPSRFSGTGSGQDYSLTISSLESDDVATYYCLQQGESPYTFGGGTKLEIK
-2.57

How about ACI-7071-809D9-Ab2 (antibody, mouse IgG2b, V domains shown, Mouse IgG2b, kappa, from hybridoma; also called 809D9C2) VH: QVQLQQSGAELVRPGVSVKISCKGSGYKFTDYSMHWVKQSHTKSLEWIGVISTYYGDTTYNQKFKGKATITVDKSSSTAYMELARLTSEDSAIYYCATYGNFPASFSYWGQGTLVTVSA VL: DIVMTQAAPSIPVTPGESVSISCRSSKSLLHSNGNTYLYWFLQRPGQSPQLLIYRMSNLASGVPDRFSGSGSGTAFTLRISRVEAEDVGVYYCMQHLEYPFTFGSGTKLEIK ?
-3.09

How about ACI-7069-646B7-Ab1 (antibody, mouse IgG2b, V domains shown, Mouse IgG2b, kappa, from hybridoma; also called 646B7F7) VH: QVQLKESGPGLVAPSQSLSITCTVSGFSLTNFGVHWVRQPPGKGLEWLGIMWAGGSTNYNSALMSRLSISKDNSKSQVFLKMNSLQTDDTAMYYCVIYKTGFAYWGQGTLVTVSA VL: DVLMTQTPLSLPVSLGDQASISCRSSQSIVHAIGNTYLEWYLQKPGQSPKLLIYKVSNRFSGVPDRFSGSGSGTDFTLKISRVEAEDLGVYYCFQGSHVPFTFGSGTKLEIK ?
-3.19

How about ACI-7069-634H10-Ab2 (antibody, mouse IgG2b, V domains shown, Mouse IgG2b, kappa, from hybridoma; also called 634H10H7) VH: EVQLQQSGAELVKPGASVRLSCTASGFNIKDTYMHWVKQRPEQGLEWIGRIDPANSNTKFDPKFQGKATITSDTSSNTAYLQLSSLTSEDTAVYYCARFYGGSHWYFDVWGAGTTVTVSS VL: DIKMTQSPSSMYASLGERVTITCKASQDIKSYLSWYQHKPWKSPKALIYYATSLADGVPSRFSGSGSGQDYSLTISSLESDDTATYYCLQQGESPYTFGGGTKLEIK ?
-3.06

How about ACI-7069-636E5-Ab1 (antibody, mouse IgG2b, V domains shown, Mouse IgG2b, lambda, from hybridoma; also called 636E5B8) VH: EVHLVESGGDLVMPGGSLKLSCAASGFTFSNYGMSWVRQTPDKRLEWVATISSGGKYINYLDSLKGRFTISRDNAKNTLYLQMSSLKSEDTAMYYCAKDYGSGWAWFAYWGQGTLVTVSA VL: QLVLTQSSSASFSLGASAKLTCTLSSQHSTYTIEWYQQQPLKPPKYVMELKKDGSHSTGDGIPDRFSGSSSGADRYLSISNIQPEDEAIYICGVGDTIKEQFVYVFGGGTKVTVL ?
-3.17

How about ACI-7071-809F12-Ab1 (antibody, mouse IgG2b, V domains shown, Mouse IgG2b, kappa, from hybridoma; also called 809F12D8) VH: QVQLKESGPGLVAPSQSLSITCTVSGFSLNRNGVQWVRQPPGKGLEWLGVIWPGGSTNCNSALMSRLSISKDNSKSQVFLKMNSLHTDDTGIYYCARVGGNYVWDYNNYAWGQGTLVTVSA VL: DVLMTQTPLSLPVSLGDQASISCRSSQNIVHSIGNTYLEWYLQKPGQSPKLLIYKVSNRFSGVPDRFSGSGSGTDFTLKISRVEAEDLGVYYCFQGSHVPYTFGGGTKLEIR ?
-3.78

How about ACI-7069-641H1-Ab2 (antibody, mouse IgG2b, V domains shown, Mouse IgG2b, kappa, from hybridoma; also called 641H1E7) VH: QVQLKESGPGLVAPSQSLSITCTVSGFSLTNYGVHWVRQPPGKGLEWLGLMWAGGSTNYNSALMSRLSISKDNSKSQVFLKMNSLQTDDTAMYYCVIYRTGFAYWGQGTLVTVSA VL: DVLMTQTPLSLPVSLGDQASISCRSSQSIVHTIGNTYLEWYLQKPGQSPKLLIYKVSNRFSGVPDRFSGSGSGTDFTLKISRVEAEDLGVYYCFQGSHVPFTFGSGTKLEIK ?
-3.08

How about ACI-7069-642D12-Ab1 (antibody, mouse IgG2b, V domains shown, Mouse IgG2b, kappa, from hybridoma; also called 642D12B4) VH: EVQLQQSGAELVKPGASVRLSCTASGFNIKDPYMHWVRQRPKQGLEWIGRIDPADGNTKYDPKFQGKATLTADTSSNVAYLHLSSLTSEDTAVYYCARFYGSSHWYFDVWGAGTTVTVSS VL: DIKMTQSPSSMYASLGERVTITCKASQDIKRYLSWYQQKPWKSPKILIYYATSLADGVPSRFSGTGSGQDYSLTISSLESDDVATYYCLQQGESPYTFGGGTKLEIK ?
-3.08
